experiment: Biodistribution in AR42J tumor-bearing mice; settings: female, CD-1 nude (athymic nude), mouse, muscle, iv, total radioactivity, Biodistribution, i.v. ~5 MBq (~1 nmol), 5 h p.i., mean ± SD, n=3
recorded.endpoint: tissue uptake at 5 h (%ID/g)
// units = %ID/g; emit number, no label

Form field: reported tissue uptake at 5 h of C[C@@H](O)[C@@H]1NC(=O)[C@H](CCCCN)NC(=O)[C@@H](Cc2c[nH]c3ccccc23)NC(=O)[C@H](Cc2cccc3ccccc23)NC(=O)[C@@H](NC(=O)[C@@H](Cc2ccccc2)NC(=O)CCC(C(=O)O)N2CCN(CC(=O)O)CCN(CC(=O)O)CC2)CSSC[C@@H](C(=O)N[C@H](CO)[C@@H](C)O)NC1=O (stereo partly shown) [^44Sc-NODAGA-NOC, metal not drawn]
0.26

* * *

assay: Biodistribution in U87MG tumor-bearing mice; type: in vivo; settings: female, CD-1 nude (athymic nude), mouse, lung, iv, 5 MBq per mouse, total radioactivity, i.v. ~5 MBq (~1 nmol), 30 min p.i., mean ± SD, n=3, read-out: Biodistribution, Lung
recorded.endpoint: tissue uptake at 0.5 h
Returns: string containing the number followed by the unit.

Given N=C(N)NCCC[C@@H]1NC(=O)[C@H](CCCCNC(=O)CN2CCN(CC(=O)O)CCN(CC(=O)O)CCN(CC(=O)O)CC2)NC(=O)[C@@H](Cc2ccccc2)NC(=O)[C@H](CC(=O)O)NC(=O)CNC1=O [^44Sc-DOTA-RGD, metal not drawn] , state its recorded tissue uptake at 0.5 h.
2.17 %ID/g

So what's the measured tissue uptake at 0.5 h for this one? N=C(N)NCCC[C@@H]1NC(=O)[C@H](CCCCNC(=O)CCC(C(=O)O)N2CCN(CC(=O)O)CCN(CC(=O)O)CC2)NC(=O)[C@@H](Cc2ccc(O)cc2)NC(=O)[C@H](CC(=O)O)NC(=O)CNC1=O (some centres unmarked) [^44Sc-NODAGA-RGD, metal not drawn]
2.2 %ID/g

* * *

Please provide measured tissue uptake at 0.5 h for the entries that follow.
assay: Biodistribution in U87MG tumor-bearing mice; assay type: in vivo; conditions: female, CD-1 nude (athymic nude), mouse, pancreas, iv, total radioactivity, i.v. ~5 MBq (~1 nmol), 30 min p.i., mean ± SD, n=3, read-out: Biodistribution, pancreas
Number only, in %ID/g; omit the unit.

Which tissue uptake at 0.5 h is listed for N=C(N)NCCC[C@@H]1NC(=O)[C@H](CCCCNC(=O)CN2CCN(CC(=O)O)CCN(CC(=O)O)CCN(CC(=O)O)CC2)NC(=O)[C@@H](Cc2ccccc2)NC(=O)[C@H](CC(=O)O)NC(=O)CNC1=O [^44Sc-DOTA-RGD, metal not drawn] ?
0.94

Give its tissue uptake at 0.5 h value. Item: N=C(N)NCCC[C@@H]1NC(=O)[C@H](CCCCNC(=O)CCC(C(=O)O)N2CCN(CC(=O)O)CCN(CC(=O)O)CC2)NC(=O)[C@@H](Cc2ccc(O)cc2)NC(=O)[C@H](CC(=O)O)NC(=O)CNC1=O (some centres unmarked) [^44Sc-NODAGA-RGD, metal not drawn]
0.73

* * *

experiment: Biodistribution in AR42J tumor-bearing mice; settings: female, CD-1 nude (athymic nude), mouse, pancreas, iv, 5 MBq per mouse, total radioactivity, Biodistribution, i.v. ~5 MBq (~1 nmol), 5 h p.i., mean ± SD, n=3
recorded.endpoint: tissue uptake at 5 h
Your answer should be a number followed by the unit of measure.

Look up tissue uptake at 5 h: C[C@@H](O)[C@@H]1NC(=O)[C@H](CCCCN)NC(=O)[C@@H](Cc2c[nH]c3ccccc23)NC(=O)[C@H](Cc2cccc3ccccc23)NC(=O)[C@@H](NC(=O)[C@@H](Cc2ccccc2)NC(=O)CCC(C(=O)O)N2CCN(CC(=O)O)CCN(CC(=O)O)CC2)CSSC[C@@H](C(=O)N[C@H](CO)[C@@H](C)O)NC1=O (stereo partly shown) [^44Sc-NODAGA-NOC, metal not drawn]
1.35 %ID/g

* * *

experiment: in vivo; details: female, CD-1 nude (athymic nude), mouse, iv, 5 MBq per mouse, total radioactivity, Biodistribution, Intestines
recorded.endpoint: tissue uptake at 0.5 h (%ID/g)
The reply should be a number in %ID/g, with the unit left off.

Give the measured tissue uptake at 0.5 h of C[C@@H](O)[C@@H]1NC(=O)[C@H](CCCCN)NC(=O)[C@@H](Cc2c[nH]c3ccccc23)NC(=O)[C@H](Cc2cccc3ccccc23)NC(=O)[C@@H](NC(=O)[C@@H](Cc2ccccc2)NC(=O)CN2CCN(CC(=O)O)CCN(CC(=O)O)CCN(CC(=O)O)CC2)CSSC[C@@H](C(=O)N[C@H](CO)[C@@H](C)O)NC1=O [^44Sc-DOTA-NOC, metal not drawn] .
1.02

* * *

test: Biodistribution in U87MG tumor-bearing mice; assay type: in vivo; settings: female, CD-1 nude (athymic nude), mouse, spleen, iv, 5 MBq per mouse, total radioactivity, i.v. ~5 MBq (~1 nmol), 2 h p.i., mean ± SD, n=3, read-out: Biodistribution, Spleen
Would you mind telling me the reported tissue uptake at 2 h of each entry?
Return type: number; implicit unit %ID/g.

What does the record list as tissue uptake at 2 h for N=C(N)NCCC[C@@H]1NC(=O)[C@H](CCCCNC(=O)CCC(C(=O)O)N2CCN(CC(=O)O)CCN(CC(=O)O)CC2)NC(=O)[C@@H](Cc2ccc(O)cc2)NC(=O)[C@H](CC(=O)O)NC(=O)CNC1=O (some centres unmarked) [^44Sc-NODAGA-RGD, metal not drawn] ?
1.58

Looking for the measured tissue uptake at 2 h of N=C(N)NCCC[C@@H]1NC(=O)[C@H](CCCCNC(=O)CN2CCN(CC(=O)O)CCN(CC(=O)O)CCN(CC(=O)O)CC2)NC(=O)[C@@H](Cc2ccccc2)NC(=O)[C@H](CC(=O)O)NC(=O)CNC1=O [^44Sc-DOTA-RGD, metal not drawn] , can you help?
2.82

* * *

assay: Biodistribution in U87MG tumor-bearing mice; format: in vivo; conditions: female, CD-1 nude (athymic nude), mouse, intestines, iv, 5 MBq per mouse, total radioactivity, i.v. ~5 MBq (~1 nmol), 5 h p.i., mean ± SD, n=3, read-out: Biodistribution, Intestines
Kindly state tissue uptake at 5 h for each of the entries shown.
Write the value in %ID/g as a bare number.

Quick check: tissue uptake at 5 h of N=C(N)NCCC[C@@H]1NC(=O)[C@H](CCCCNC(=O)CCC(C(=O)O)N2CCN(CC(=O)O)CCN(CC(=O)O)CC2)NC(=O)[C@@H](Cc2ccc(O)cc2)NC(=O)[C@H](CC(=O)O)NC(=O)CNC1=O (some centres unmarked) [^44Sc-NODAGA-RGD, metal not drawn] ?
0.75

Look up tissue uptake at 5 h for this compound: N=C(N)NCCC[C@@H]1NC(=O)[C@H](CCCCNC(=O)CN2CCN(CC(=O)O)CCN(CC(=O)O)CCN(CC(=O)O)CC2)NC(=O)[C@@H](Cc2ccccc2)NC(=O)[C@H](CC(=O)O)NC(=O)CNC1=O [^44Sc-DOTA-RGD, metal not drawn]
1.07

* * *

experiment: Biodistribution in U87MG tumor-bearing mice; type: in vivo; conditions: female, CD-1 nude (athymic nude), mouse, kidneys, iv, total radioactivity, i.v. ~5 MBq (~1 nmol), 30 min p.i., mean ± SD, n=3, read-out: Biodistribution, Kidneys
For each of the molecules below, state its tissue uptake at 0.5 h.
Provide the reading as a plain figure in %ID/g.

Please give the measured tissue uptake at 0.5 h for this molecule: N=C(N)NCCC[C@@H]1NC(=O)[C@H](CCCCNC(=O)CN2CCN(CC(=O)O)CCN(CC(=O)O)CCN(CC(=O)O)CC2)NC(=O)[C@@H](Cc2ccccc2)NC(=O)[C@H](CC(=O)O)NC(=O)CNC1=O [^44Sc-DOTA-RGD, metal not drawn]
4.44

Entry under review: N=C(N)NCCC[C@@H]1NC(=O)[C@H](CCCCNC(=O)CCC(C(=O)O)N2CCN(CC(=O)O)CCN(CC(=O)O)CC2)NC(=O)[C@@H](Cc2ccc(O)cc2)NC(=O)[C@H](CC(=O)O)NC(=O)CNC1=O (some centres unmarked) [^44Sc-NODAGA-RGD, metal not drawn] . Reported tissue uptake at 0.5 h?
3.89

* * *

experiment: Biodistribution in AR42J tumor-bearing mice; details: female, CD-1 nude (athymic nude), mouse, AR42J tumor, iv, total radioactivity, Biodistribution, i.v. ~5 MBq (~1 nmol), 5 h p.i., mean ± SD, n=3
recorded.endpoint: tissue uptake at 5 h
Answer format: value, then unit.

Find the recorded tissue uptake at 5 h belonging to C[C@@H](O)[C@@H]1NC(=O)[C@H](CCCCN)NC(=O)[C@@H](Cc2c[nH]c3ccccc23)NC(=O)[C@H](Cc2cccc3ccccc23)NC(=O)[C@@H](NC(=O)[C@@H](Cc2ccccc2)NC(=O)CCC(C(=O)O)N2CCN(CC(=O)O)CCN(CC(=O)O)CC2)CSSC[C@@H](C(=O)N[C@H](CO)[C@@H](C)O)NC1=O (stereo partly shown) [^44Sc-NODAGA-NOC, metal not drawn] and report it.
10.8 %ID/g
